molecular target: T1, human wt-ERβ LBD (estrogen receptor beta ligand-binding domain, amino acids 261-502) (human, UniProt Q92731 261-502); test: fluorescence polarisation; fluorescence anisotropy; 4 nM fluorescein-SRC-1 NR2 peptide, LBD diluted 2-fold from 10 uM (ERα) or 20 uM (ERβ); with E2 at 20 uM (ERα) or 40 uM (ERβ); 20 mM Tris pH 8.0, 150 mM NaCl, 5 mM DTT, 10% glycerol; details: both partners purified
T1 construct: Cloned into pET-32a; N-terminal thioredoxine-hexahistidine tag removed with TEV protease; not shown: thioredoxin, N-terminal, cleaved; His6, N-terminal, cleaved
T1 sequence (Q92731 261-502): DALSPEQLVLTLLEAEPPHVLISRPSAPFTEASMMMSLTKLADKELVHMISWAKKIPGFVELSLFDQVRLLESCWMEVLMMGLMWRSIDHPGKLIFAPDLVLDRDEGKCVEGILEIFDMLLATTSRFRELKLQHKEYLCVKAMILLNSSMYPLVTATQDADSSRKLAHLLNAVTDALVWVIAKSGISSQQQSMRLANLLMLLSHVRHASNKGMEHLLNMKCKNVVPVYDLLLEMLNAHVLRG
Where no end group is shown, it is not given here. fluorescein = fluorescein label on the N-terminus of the peptide
Measurement Name: Kd (µM)
Provide only the numeric value, understood in µM.

Data request: Please give the documented Kd of fluorescein-RHKILHRLLQEGS (also called SRC-1 NR2 peptide; fluorescein-labeled SRC-1 NR2 peptide; source: bought: EZbiolab) [fluorescein-RHKILHRLLQEGS peptide corresponding to the NR box 2-binding motif of SRC-1]
Data returned: 0.68
